- TEST SUMMARY: logP determination by HPLC (formic acid method)
- Assay type: physicochemical
- EXPERIMENTAL SETUP: reversed-phase HPLC column (C18), pH 3.4, HPLC on reversed-phase column (C18), acidic range (pH 3.4), 55° C.; read-out: logP (HCOOH)

[
  {
    "MOLECULE": "Cc1nc(-c2cccnc2)sc1-n1ccc(-c2ccco2)n1 [compound 40]",
    "chromatographic logP": 2.43
  },
  {
    "MOLECULE": "Cc1nc(-c2cncnc2)sc1-c1ccnc(-c2ncccn2)n1 [compound 179]",
    "chromatographic logP": 1.06
  },
  {
    "MOLECULE": "Cn1nc(-c2cccnc2)cc1-c1ccnc(-c2ncccn2)n1 [Preparation Example 12]",
    "chromatographic logP": 0.65
  },
  {
    "MOLECULE": "CN(C)c1cccc(-c2cnc(-c3cccnc3)s2)n1 [compound 200]",
    "chromatographic logP": 2.83
  },
  {
    "MOLECULE": "Cc1nc(-c2cccnc2)sc1-c1cccc(-c2ccccc2Cl)n1 [compound 42]",
    "chromatographic logP": 3.97
  },
  {
    "MOLECULE": "Cc1nc(-c2cccnc2)sc1-c1nc(C(F)(F)F)co1 [compound 75]",
    "chromatographic logP": 2.97
  },
  {
    "MOLECULE": "Cc1nc(-c2cncnc2)sc1-c1cccc(-c2ncccn2)n1 [compound 150]",
    "chromatographic logP": 1.76
  },
  {
    "MOLECULE": "CNC(=S)n1ccc(-c2sc(-c3cccnc3)nc2C)n1 [compound 137]",
    "chromatographic logP": 2.65
  },
  {
    "MOLECULE": "Cc1nc(-c2cccnc2)sc1-c1cccc(-c2ncccn2)n1 [Preparation Example 6]",
    "chromatographic logP": 1.73
  }
]
